Target: T1, human RXFP1 (human, UniProt Q9HBX9 1-757)
T1 sequence (looked up): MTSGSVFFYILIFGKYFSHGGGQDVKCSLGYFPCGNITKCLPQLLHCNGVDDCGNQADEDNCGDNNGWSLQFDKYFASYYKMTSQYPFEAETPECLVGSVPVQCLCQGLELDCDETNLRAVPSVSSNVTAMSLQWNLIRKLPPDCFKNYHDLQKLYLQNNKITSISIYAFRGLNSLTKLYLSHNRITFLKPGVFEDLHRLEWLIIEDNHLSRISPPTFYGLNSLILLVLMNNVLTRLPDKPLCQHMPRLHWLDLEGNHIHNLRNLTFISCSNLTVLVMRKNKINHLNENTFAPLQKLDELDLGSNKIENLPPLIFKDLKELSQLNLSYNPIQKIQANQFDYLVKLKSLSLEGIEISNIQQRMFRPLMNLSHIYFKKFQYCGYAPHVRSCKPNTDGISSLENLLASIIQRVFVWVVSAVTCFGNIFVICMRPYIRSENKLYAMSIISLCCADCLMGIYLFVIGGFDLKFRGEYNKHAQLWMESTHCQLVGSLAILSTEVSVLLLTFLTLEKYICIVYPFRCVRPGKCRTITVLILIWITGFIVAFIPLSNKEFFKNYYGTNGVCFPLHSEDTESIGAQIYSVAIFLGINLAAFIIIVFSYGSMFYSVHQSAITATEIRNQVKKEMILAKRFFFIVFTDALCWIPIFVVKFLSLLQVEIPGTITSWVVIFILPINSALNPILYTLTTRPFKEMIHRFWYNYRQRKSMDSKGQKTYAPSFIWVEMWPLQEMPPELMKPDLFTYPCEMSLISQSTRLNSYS
Test: cell-based or functional assay
Numbered stars: 1 amine (or outer) side, 2 acyl side, 3 side chain; on linkers, the order of the positions; unused ones are H or OH. Square brackets hold non-standard residues; d marks the D form. Side chains are listed from the residue outwards. * marks the point of attachment. TTDS = 4-[3-[2-[2-(3-aminopropoxy)ethoxy]ethoxy]propylamino]-4-oxo-butanoyl; Trp(5-Cl) = N[C@@H](Cc1c[nH]c2ccc(Cl)cc12)C(=O)O; Phe(4-F) = N[C@@H](Cc1ccc(F)cc1)C(=O)O; γGlu = O=C(O)[C@H](CCC(=O)[*:2])N[*:1]; Stearoyl = CCCCCCCCCCCCCCCCCC(=O)*; Palmitoyl = CCCCCCCCCCCCCCCC(=O)*; Myristoyl = CCCCCCCCCCCCCC(=O)*; Cit = NC(=O)NCCC[C@H](N)C(=O)O; αMeK = C[C@](N)(CCCCN)C(=O)O; hLys = NCCCCC[C@H](N)C(=O)O; Aib = CC(C)(N)C(=O)O
parameter: EC50 (nM), OVCAR 5 cells (cAMP)

Ac-LEGREKVRA[Cit]I[Aib][Aib]EGK([TTDS-TTDS-TTDS-γGlu-γGlu-γGlu-Stearoyl])STFS[αMeK]RAK(Ac)-NH2 [Relaxin peptide analogue of SEQ ID NO: 56]    0.15
Ac-LEGREKVRAK(Ac)I[Aib][Aib]EGK([TTDS-TTDS-TTDS-γGlu-γGlu-γGlu-Palmitoyl])SRWS[Aib]RKK(Ac)-NH2 [Relaxin peptide analogue of SEQ ID NO: 64]    0.52
Ac-LEGREKVRAK(Ac)I[Aib][Aib]EGK([TTDS-TTDS-TTDS-γGlu-γGlu-γGlu-Myristoyl])STFS[αMeK]RAK-NH2 [Relaxin peptide analogue of SEQ ID NO: 96]    0.88
Ac-LEGREKVRA[Cit]I[Aib][Aib]EGK([TTDS-TTDS-TTDS-γGlu-γGlu-γGlu-Palmitoyl])STFS[αMeK]RAK(Ac)-NH2 [Relaxin peptide analogue of SEQ ID NO: 12]    0.93

[I] Ac-LEGREKVRAK(Ac)I[Aib][Aib]EGK([TTDS-TTDS-TTDS-γGlu-γGlu-γGlu-Stearoyl])STFS[Aib]RKK(Ac)-NH2 [Relaxin peptide analogue of SEQ ID NO: 61]
[II] Ac-LEGRERVRAK(Ac)I[Aib][Aib]EGK([TTDS-TTDS-TTDS-γGlu-γGlu-γGlu-Palmitoyl])ST[Trp(5-Cl)]S[Aib]RRK(Ac)-NH2 [Relaxin peptide analogue of SEQ ID NO: 80]
[III] Ac-LEGREKVRAK(Ac)I[Aib][Aib]EGK([TTDS-TTDS-TTDS-γGlu-γGlu-γGlu-Palmitoyl])SQWS[Aib]RKK(Ac)-NH2 [Relaxin peptide analogue of SEQ ID NO: 63]
# rank by EC50 (nM), OVCAR 5 cells (cAMP), ascending (min first) When ranking, write the labels in the order the request describes.
I, II, III
(I: 0.1 nM, II: 0.63 nM, III: 1.45 nM)

[A] Ac-LEGREKVRAK(Ac)I[Aib]IEGK([TTDS-TTDS-TTDS-γGlu-γGlu-γGlu-Palmitoyl])STFS[αMeK]RAK(Ac)-NH2 [Relaxin peptide analogue of SEQ ID NO: 84]
[B] Ac-LEGREKVRAK(Ac)I[Aib][Aib]EGK([TTDS-TTDS-TTDS-γGlu-γGlu-γGlu-γGlu-Palmitoyl])STWS[Aib]RKK(Ac)-NH2 [Relaxin peptide analogue of SEQ ID NO: 62]
[C] Ac-K(Ac)EGREKVRAK(Ac)I[Aib][Aib]EGK([TTDS-TTDS-TTDS-γGlu-γGlu-γGlu-Palmitoyl])STFS[αMeK]RAK(Ac)-NH2 [Relaxin peptide analogue of SEQ ID NO: 81]
Sort the 3 binders by EC50 (nM), OVCAR 5 cells (cAMP); largest first, smallest last. A complete answer lists every label in the requested sequence.
B, C, A

[1] Ac-LEGREKVRAK(Ac)I[Aib][Aib]EGK([TTDS-TTDS-TTDS-TTDS-γGlu-γGlu-γGlu-Stearoyl])STFS[Aib]RKK(Ac)-NH2 [Relaxin peptide analogue of SEQ ID NO: 59]
[2] Ac-LEGREKVRAK(Ac)I[Aib][Aib]EGK([TTDS-TTDS-TTDS-γGlu-γGlu-γGlu-Palmitoyl])STWS[Aib]RK(Ac)R-NH2 [Relaxin peptide analogue of SEQ ID NO: 69]
Please let me know which one, 1 or 2 , has a lower measured EC50 (nM), OVCAR 5 cells (cAMP) value. Bench note: the answer is the label of the chosen record.
1
(1: 0.09 nM, 2: 0.78 nM)

[I] Ac-LEGREKVRAK(Ac)I[Aib][Aib]EGK([TTDS-TTDS-TTDS-γGlu-γGlu-γGlu-γGlu-Stearoyl])STWS[Aib]RKK(Ac)-NH2 [Relaxin peptide analogue of SEQ ID NO: 51]
[II] Ac-LEGRE[hLys]VRAK(Ac)I[Aib][Aib]EGK([TTDS-TTDS-TTDS-γGlu-γGlu-γGlu-Palmitoyl])STFS[αMeK]RAK(Ac)-NH2 [Relaxin peptide analogue of SEQ ID NO: 28]
[III] Ac-LEGREKVRAK(Ac)I[Aib][Aib]EGK([TTDS-TTDS-TTDS-γGlu-γGlu-γGlu-Palmitoyl])STFS[dK]RAK(Ac)-NH2 [Relaxin peptide analogue of SEQ ID NO: 36]
Rank descending by EC50 (nM), OVCAR 5 cells (cAMP). Please, when replying, give the labels in the order that was requested.
III, II, I
(III: 3.6 nM, II: 0.62 nM, I: 0.1 nM)

[1] Ac-LEGRERVRAK(Ac)I[Aib][Aib]EGK([TTDS-TTDS-TTDS-γGlu-γGlu-γGlu-Palmitoyl])ST[Phe(4-F)]S[Aib]RRK(Ac)-NH2 [Relaxin peptide analogue of SEQ ID NO: 91]
[2] Ac-LEGREKVRAK(Ac)I[Aib][Aib]EGK([TTDS-TTDS-TTDS-γGlu-γGlu-γGlu-Palmitoyl])STWS[Aib]RK(Ac)K-NH2 [Relaxin peptide analogue of SEQ ID NO: 68]
Please indicate which entry, 1 or 2 , has the lower recorded EC50 (nM), OVCAR 5 cells (cAMP) value. Return value: the label identifying the chosen record.
1
(1: 0.09 nM, 2: 0.88 nM)
